B1: Gamma-crystallin C, residues 91 to 170; numbered along this chain, P07315 (parent)
chain: RLYEREDHKGLMMELSEDCPSIQDRFHLSEIRSLHVLEGCWVLYELPNYRGRQYLLRPQEYRRCQDWGAMDAKAGSLRRV

# Variants of: B1
# testProtocol: abundance fitness (aPCA) (normalised: wild type 0, dead -1); higher = more abundant; growth selection in yeast, the domain comes from the species named
# appliedConditions: Homo sapiens
# reported abundance fitness; entries follow

Recorded results for 4 variants are shown here.
INSERT INTO measurements (residuechange, parameter, observed) VALUES
  ('G10C', 'abundance fitness', -0.905),
  ('L37I', 'abundance fitness', -0.062),
  ('L2Y', 'abundance fitness', -0.936),
  ('E60R', 'abundance fitness', 0.006);

Req: Quick one: abundance fitness for L55V ?
Resp: -0.087

Req: Quick one: abundance fitness for A72P ?
Resp: -0.007

Req: Quick one: abundance fitness for E14C ?
Resp: -0.565

Req: Quick one: abundance fitness for L34F ?
Resp: -0.097

Req: Quick one: abundance fitness for D71N ?
Resp: -0.173
